biological target: JAK2 (Homo sapiens, UniProt O60674); construct: made in house; host or cells: SF9 insect cells (baculovirus); assay: JAK2 inhibition (Table 4); assay type: biochemical; conditions: read-out: JAK2 Ki
Sequence (O60674 812-1132): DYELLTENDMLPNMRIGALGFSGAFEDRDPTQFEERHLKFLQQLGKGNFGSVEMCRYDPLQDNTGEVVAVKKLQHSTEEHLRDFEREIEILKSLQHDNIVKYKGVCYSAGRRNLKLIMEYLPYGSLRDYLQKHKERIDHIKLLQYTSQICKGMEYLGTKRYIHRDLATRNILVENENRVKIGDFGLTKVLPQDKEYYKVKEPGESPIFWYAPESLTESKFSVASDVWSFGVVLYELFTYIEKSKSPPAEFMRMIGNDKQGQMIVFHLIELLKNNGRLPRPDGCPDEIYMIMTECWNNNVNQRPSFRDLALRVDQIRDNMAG
readout_name: Ki (nM)

Check out these entries, answers already filled in.
INSERT INTO results (molecule, tgt, readout_name, result_units, numeric_result) VALUES
  ('Cc1nc2cnc3[nH]ccc3c2n1C1CCC(NC(=O)N(C)CC(F)(F)F)C1 (racemic)', 'JAK2 (Homo sapiens, UniProt O60674)', 'Ki', 'nM', 6.42),
  ('Cc1nc2cnc3[nH]ccc3c2n1C1CNCCOC1 (centres unmarked)', 'JAK2 (Homo sapiens, UniProt O60674)', 'Ki', 'nM', 212);

a = CC(=O)N[C@H]1CC[C@H](n2cnc3cnc4[nH]ccc4c32)CC1
b = C[C@@H](O)c1nc2cnc3[nH]ccc3c2n1[C@H]1CC[C@H](N(C)CC(F)(F)F)CC1
[ask] Between the entries labelled a and b , which has a larger Ki value on record? Which one? Tell me its label.
[reply] b

a = Cc1noc(C)c1S(=O)(=O)N1CCC(n2cnc3cnc4[nH]ccc4c32)CC1
b = N#CCCN1CCC(n2c(CCNC(=O)C3CCC3)nc3cnc4[nH]ccc4c32)CC1
c = CC(CC#N)N1CCC(n2cnc3cnc4[nH]ccc4c32)CC1 (racemic)
[ask] Please list these molecules in decreasing order of Ki. Rank the items, then write their labels in that order.
[reply] b, a, c
(b: 43 nM, a: 21.2 nM, c: 0.93 nM)

P = N#CCCN[C@H]1CC[C@@H](n2cnc3cnc4[nH]ccc4c32)CC1
Q = C[C@@H](O)c1nc2cnc3[nH]ccc3c2n1[C@@H]1CCC[C@@H](O)C1
R = CN([C@H]1CC[C@H](n2cnc3cnc4[nH]ccc4c32)CC1)S(=O)(=O)C1CC1
S = C[C@H](O)c1nc2cnc3[nH]ccc3c2n1C1CCOCC1
[ask] Order by Ki, ascending. Form field (ranking): labels in requested order.
[reply] R, P, Q, S

1 = CC(C)N1CCC(n2cnc3cnc4[nH]ccc4c32)CC1
2 = Cc1nc2cnc3[nH]ccc3c2n1C1(C)CCN(CCC#N)CC1
3 = N#CCC(=O)N1CC[C@@H](n2cnc3cnc4[nH]ccc4c32)C1
[ask] Arrange items by their Ki values in increasing order. Return the labels ranked in the requested order, please.
[reply] 3, 2, 1
(3: 44.2 nM, 2: 114 nM, 1: 182 nM)

I = O=C(Cc1nc2cnc3[nH]ccc3c2n1C1CCCOC1)N1CCS(=O)(=O)CC1 (racemic)
II = N#CCCN1CCC(n2c(CC3CCCOC3)nc3cnc4[nH]ccc4c32)CC1 (racemic)
[ask] Compare the recorded Ki of I and II ; state which is larger. State your choice using its label.
[reply] I
(I: 238 nM, II: 125 nM)

The origin of these recorded values is patent US8461328B2.
